Cited source for all entries: paper PMC8296985

# target system: calmodulin (CaM) (Bos taurus)
Property: Kd; scope: individual compounds

{"columns": ["compound", "Kd / µM"],
 "data": [
  ["Cc1c(N2CCCCC2)c2c(=O)c(C(F)(F)F)cc3ccc(C(C)C)cc1c32 [Compound 8]", 3.1],
  ["CC(C)c1ccc2cc(C(F)(F)F)c(=O)c3c(NCCO)c(C=O)c(c1)c23 [Compound 6]", 31],
  ["CC(C)c1ccc2cc(C(F)(F)F)c(=O)c3c(N4CCC4)c(C=O)c(c1)c23 [Compound 5]", 29],
  ["Cc1c(N)c2c(=O)c(C(F)(F)F)cc3ccc(C(C)C)cc1c32 [Compound 14]", 21.4],
  ["Cc1c(N2CCC2)c2c(=O)c(C(F)(F)F)cc3ccc(C(C)C)cc1c32 [Compound 12]", 6.1],
  ["CC(C)c1ccc2cc(C(F)(F)F)c(=O)c3c(N4CCN(C)CC4)c(C=O)c(c1)c23 [Compound 3]", 0.25],
  ["CC(C)c1ccc2cc(C(F)(F)F)c(=O)c3c(N4CCCC4)c(C=O)c(c1)c23 [Compound 4]", 39],
  ["Cc1c(N2CCOCC2)c2c(=O)c(C(F)(F)F)cc3ccc(C(C)C)cc1c32 [Compound 9]", 1.44],
  ["CC(C)c1ccc2cc(C(F)(F)F)c(=O)c3c(N4CCCCC4)c(C=O)c(c1)c23 [Compound 1]", 0.87],
  ["CC(C)c1ccc2cc(C(F)(F)F)c(=O)c3c(N)c(C=O)c(c1)c23 [Compound 7]", 45],
  ["CC(C)c1ccc2cc(C(F)(F)F)c(=O)c3c(N4CCOCC4)c(C=O)c(c1)c23 [Compound 2]", 0.23],
  ["Cc1c(NCCO)c2c(=O)c(C(F)(F)F)cc3ccc(C(C)C)cc1c32 [Compound 13]", 62]
]}
